biological target: Gal-4-PPAR (human PPAR LBD fused to GAL4 DNA-binding domain) (Homo sapiens (Human)); assay: GAL4-PPARG LBD / UAS-luciferase transactivation assay in HEK 293T cells; assay type: cell-based; settings: HEK-293T, 18 h; read-out: % transactivation at 10 μM (GAL4)
Sequence (P37231 238-503): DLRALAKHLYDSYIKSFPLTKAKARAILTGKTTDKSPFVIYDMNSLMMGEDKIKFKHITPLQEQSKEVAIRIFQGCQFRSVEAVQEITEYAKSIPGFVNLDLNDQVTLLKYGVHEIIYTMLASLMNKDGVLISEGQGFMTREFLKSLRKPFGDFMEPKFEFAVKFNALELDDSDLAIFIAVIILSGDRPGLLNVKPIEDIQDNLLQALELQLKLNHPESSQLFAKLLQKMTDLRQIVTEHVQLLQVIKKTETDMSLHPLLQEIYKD
Could you label it YES if measured activation at 10 µM is 20% or higher, and NO otherwise?

[[record]]
compound = "Cc1c(C)n(Cc2ccc(-c3ccccc3C(=O)O)cc2)c2ccc(C(=O)NC(C)c3cncc(C4CC4)c3)cc12 (stereo not shown) [Example 259]"
qualitative_label = "NO"

[[record]]
compound = "Cc1c(C)n(Cc2ccc(-c3ccccc3C(=O)O)cc2)c2ccc(C(=O)N[C@@H](C)c3cccc(Br)n3)cc12 [Example 273]"
qualitative_label = "YES"

[[record]]
compound = "Cc1c(C)n(Cc2ccc(-c3ccccc3C(=O)O)cc2)c2ccc(C(=O)N[C@@H](C)[C@@H]3CCN(C(=O)OCc4ccccc4)C3)cc12 [Example 240]"
qualitative_label = "YES"

[[record]]
compound = "Cc1c(C)n(Cc2ccc(-c3ccccc3C(=O)O)cc2)c2ccc(C(=O)N[C@@H](C)c3cc(F)c(F)cc3F)cc12 [Example 301]"
qualitative_label = "YES"

[[record]]
compound = "Cc1c(C)n(Cc2ccc(-c3ccccc3C(=O)O)cc2)c2ccc(C(=O)N[C@@H](C)c3ccc(C4CC4)cc3)cc12 [Example 304]"
qualitative_label = "NO"

[[record]]
compound = "Cc1cccc([C@H](C)NC(=O)c2ccc3c(c2)c(C)c(C)n3Cc2ccc(-c3ccccc3C(=O)O)cc2)c1 [Example 295]"
qualitative_label = "NO"

[[record]]
compound = "Cc1c(C)n(Cc2ccc(-c3ccccc3C(=O)O)cc2)c2ccc(C(=O)N[C@H](C)c3cc(C(F)(F)F)ccc3C(F)(F)F)cc12 [Example 173]"
qualitative_label = "NO"

[[record]]
compound = "Cc1c(F)cccc1[C@H](C)NC(=O)c1ccc2c(c1)c(C)c(C)n2Cc1ccc(-c2ccccc2C(=O)O)cc1 [Example 145]"
qualitative_label = "YES"

[[record]]
compound = "CC[C@@H](NC(=O)c1ccc2c(c1)c(C)c(C)n2Cc1ccccc1-c1cccc(C(=O)O)c1)c1ccccc1 [Example 193]"
qualitative_label = "YES"

[[record]]
compound = "CC[C@H](NC(=O)c1ccc2c(c1)c(C)c(C)n2Cc1ccccc1-c1cccc(C(=O)O)c1)c1ccccc1 [Example 194]"
qualitative_label = "NO"

[[record]]
compound = "Cc1c(C)n(Cc2ccc(-c3ccccc3C(=O)O)cc2)c2ccc(C(=O)N[C@@H](C)c3cccc(OC(C)C)c3)cc12 [Example 199]"
qualitative_label = "NO"


Where do these numbers come from? They come from patent US8957093B2.
